Where these numbers come from: patent US6833368B2

Study Target: NMDA receptor glycine site (Rattus norvegicus, UniProt P35439)
Construct: The rat brain membranes used in the experiments were obtained from Analytical Biological Services Inc; tissue Analytical Biological Services Inc
Method Summary: Test A: Inhibition of binding of [3H]-MDL105,519 to brain membranes
Condition Details: inhibition of 1.2 nM [3H]MDL105,519 binding to brain membranes; rat or human membranes not specified
pKi: −log10 of the molar value.
Endpoint Label: pKi

1) O=c1c2ccc(Cl)cc2[nH]c2c(O)nn(C3CCCc4ccccc43)c(=O)c12 (racemic) [Ex. 4]    6.14
2) O=c1c2ccc(Cl)cc2[nH]c2c(O)nn(C3CCSc4ccccc43)c(=O)c12 (racemic) [Ex. 1]    6.39
3) O=c1c2ccc(Cl)cc2[nH]c2c(O)nn(C3CCCc4sccc43)c(=O)c12 (racemic) [Ex. 3]    6.29
4) O=c1c2ccc(Cl)cc2[nH]c2c(O)nn(C3CCOc4ccccc43)c(=O)c12 (racemic) [Ex. 2]    6.25
